These measurements were taken from ChEMBL document CHEMBL2396549.

# System: Liver microsomes
# METHOD_NOTES: Metabolic stability in rat liver microsomes assessed as compound remaining
# Type: ADME, Microsome
Hi there, I'd appreciate the recorded Stability for every entry that follows.
One number for each entry, in %.

// below: answered compounds
In [3]: df
Out[3]:
                                   compound  recorded_metric  unit_abbreviation  assay_value
0  CC(C)[C@@H](NC(=O)c1cccc(C(=O)O)c1)C(=O)N1CC[C@](O)(c2ccc(Cl)cc2)C(C)(C)C1        Stability                  %           97
1  CC(C)[C@@H](NC(=O)[C@@H]1CCC[C@H]1N)C(=O)N1CC[C@](O)(c2ccc(Cl)cc2)C(C)(C)C1        Stability                  %           84
2  CC(C)[C@@H](NC(=O)c1cccc(S(N)(=O)=O)c1)C(=O)N1CC[C@](O)(c2ccc(Cl)cc2)C(C)(C)C1        Stability                  %          100

Give Stability for each listed item.
1. CC(C)[C@@H](NC(=O)C1CCCC1)C(=O)N1CC[C@](O)(c2ccc(Cl)cc2)C(C)(C)C1
2. CC(C)[C@@H](NC(=O)[C@H]1CC[C@@H](O)C1)C(=O)N1CC[C@](O)(c2ccc(Cl)cc2)C(C)(C)C1 (mixture of isomers)
3. CC(C)[C@@H](NC(=O)[C@@H]1CCC[C@@H]1O)C(=O)N1CC[C@](O)(c2ccc(Cl)cc2)C(C)(C)C1 (relative stereo)
4. CC(C)[C@@H](NC(=O)[C@@H]1CC[C@H](O)C1)C(=O)N1CC[C@](O)(c2ccc(Cl)cc2)C(C)(C)C1 (mixture of isomers)
5. CC(C)[C@@H](NC(=O)[C@@H]1CCC[C@@H]1N)C(=O)N1CC[C@](O)(c2ccc(Cl)cc2)C(C)(C)C1

[reply]
1. 50
2. 67
3. 20
4. 75
5. 93

Give Stability for each listed item.
1. CC(C)[C@@H](NC(=O)[C@@H]1CC[C@@H](O)C1)C(=O)N1CC[C@](O)(c2ccc(Cl)cc2)C(C)(C)C1 (mixture of isomers)
2. CC(C)[C@@H](NC(=O)[C@H]1CC[C@H](O)C1)C(=O)N1CC[C@](O)(c2ccc(Cl)cc2)C(C)(C)C1 (mixture of isomers)

[reply]
1. 87
2. 74

###

Hi there, I'd appreciate the recorded Stability for every entry that follows.
# System: Liver microsomes
# METHOD_NOTES: Metabolic stability in human liver microsomes assessed as compound remaining
# Assay type: ADME, Microsome
Numbers only, in %.

>>> print(df.to_string())
                                   compound  assay_value
0  CC(C)[C@@H](NC(=O)[C@@H]1CCC[C@@H]1N)C(=O)N1CC[C@](O)(c2ccc(Cl)cc2)C(C)(C)C1           94
1  CC(C)[C@@H](NC(=O)[C@@H]1CCC[C@@H]1O)C(=O)N1CC[C@](O)(c2ccc(Cl)cc2)C(C)(C)C1 (relative stereo)           33

Consider now this further compound.
[ask] Provide the documented Stability with Liver microsomes as the system for CC(C)[C@@H](NC(=O)[C@H]1CC[C@@H](O)C1)C(=O)N1CC[C@](O)(c2ccc(Cl)cc2)C(C)(C)C1 (mixture of isomers)
[reply] 69
